Reported Duration values for a set of compounds
Tested on: Male spontaneously hypertensive rats (SHR), arterial blood pressure
test.name: Depressor response after intravenous administration (30 μg/kg), Table 1
Assay type: in vivo, rat
measurement.conditions: '90<' means greater than 90

[
  {
    "compound": "COCCOC(=O)C1=C(C)NC(C)=C(C(=O)OCC=Cc2ccccc2)C1c1cccc([N+](=O)[O-])c1 (stereo not drawn) [Example 13]",
    "Duration": "> 270 min"
  },
  {
    "compound": "COC(=O)C1=C(C)NC(C)=C(C(=O)OCC/C=C/c2ccc3ccccc3c2)C1c1cccc([N+](=O)[O-])c1 (stereo not drawn) [12 (trans)]",
    "Duration": "> 90 min"
  },
  {
    "compound": "COC(=O)C1=C(C)NC(C)=C(C(=O)OC(C)C=Cc2ccccc2)C1c1cccc([N+](=O)[O-])c1 (stereo not drawn) [Example 30]",
    "Duration": "> 120 min"
  },
  {
    "compound": "CC1=C(C(=O)OC(C)C)C(c2cccc([N+](=O)[O-])c2)C(C(=O)OC(C)C=Cc2ccccc2)=C(C)N1 (stereo not drawn) [Example 32]",
    "Duration": "> 190 min"
  },
  {
    "compound": "COC(=O)C1=C(C)NC(C)=C(C(=O)OC(C)C=CC2=C(C)CCCC2(C)C)C1c1cccc([N+](=O)[O-])c1 (stereo not drawn) [Example 74]",
    "Duration": "> 120 min"
  },
  {
    "compound": "COC(=O)C1=C(C)NC(C)=C(C(=O)OC(C=Cc2ccccc2)C(C)C)C1c1cccc([N+](=O)[O-])c1 (stereo not drawn) [Example 8]",
    "Duration": "> 180 min"
  }
]
